assay: Dissociation constant, pKa of the compound; assay type: physicochemical
EXPERIMENTAL_ENDPOINT: pKa

CCc1cccc(C)c1CNc1cc(C(=O)N(C)C)nc2c(Br)c(C)[nH]c12 ... 5.84
Cc1cccc(C)c1CNc1cc(C(=O)N(C)C)nc2c(CO)c(C)[nH]c12 ... 7.2
Cc1cccc(C)c1CNc1cc(C(=O)N(C)C)nc2c(C)c(C)n(C)c12 ... 7.13
Cc1cccc(C)c1CNc1cc(C(=O)N(C)C)nc2c(C)c(C)[nH]c12 ... 7.56
CCc1cccc(C)c1CNc1cc(C(=O)N(C)C)nc2cc(C)[nH]c12 ... 7.39
CNC(=O)c1cc(NCc2c(C)cccc2C)c2[nH]c(C)c(Br)c2n1 ... 7.39
Cc1cccc(C)c1CNc1cc(C(=O)N(C)C)nc2c(Br)c(C)[nH]c12 ... 6.02
Cc1cccc(C)c1CNc1cc(C(=O)N(C)C)nc2c(CO)c(C)n(Cc3ccccc3)c12 ... 6.52
CCc1cccc(C)c1CNc1cc(C(=O)N(C)C)nc2c(C)c(C)[nH]c12 ... 7.57
CCc1cccc(C)c1CNc1cc(C(=O)N(C)C)nc2c(CO)c(C)[nH]c12 ... 7.07
Cc1cccc(C)c1CNc1cc(C(=O)N(C)C)nc2c(C)c(C)n(Cc3ccccc3)c12 ... 6.86
CNC(=O)c1cc(NCc2c(C)cccc2C)c2[nH]c(C)cc2n1 ... 7.33
Cc1cccc(C)c1CNc1cc(C(=O)N(C)C)nc2c(C)c(C)n(CC(C)O)c12 (centres undefined) ... 7.19
Cc1cc2nc(C(=O)N(C)C)cc(NCc3c(C)cccc3C)c2[nH]1 ... 7.3

----------
experiment: Distribution coefficient, log D at pH 7.4; conditions: octanol/water
EXPERIMENTAL_ENDPOINT: logD

CNC(=O)c1cc(NCc2c(C)cccc2C)c2[nH]c(C)cc2n1 ... 2.96
Cc1cc2nc(C(=O)N(C)C)cc(NCc3c(C)cccc3C)c2[nH]1 ... 3.62
Cc1cccc(C)c1CNc1cc(C(=O)N(C)C)nc2c(C)c(C)n(CC(C)O)c12 (configuration not stated) ... 3.4
Cc1cccc(C)c1CNc1cc(C(=O)N(C)C)nc2c(C)c(C)n(C)c12 ... 3.53
Cc1cccc(C)c1CNc1cc(C(=O)N(C)C)nc2c(C)c(C)n(Cc3ccccc3)c12 ... 5.2
Cc1cccc(C)c1CNc1cc(C(=O)N(C)C)nc2c(CO)c(C)[nH]c12 ... 2.95
CCc1cccc(C)c1CNc1cc(C(=O)N(C)C)nc2c(CO)c(C)[nH]c12 ... 3.27
CCc1cccc(C)c1CNc1cc(C(=O)N(C)C)nc2cc(C)[nH]c12 ... 4.1
CCc1cccc(C)c1CNc1cc(C(=O)N(C)C)nc2c(C)c(C)[nH]c12 ... 4.6
Cc1cccc(C)c1CNc1cc(C(=O)N(C)C)nc2c(CO)c(C)n(Cc3ccccc3)c12 ... 3.87

----------
assay: Inhibition of hog gastric mucosa H/+K+ ATPase; assay type: tissue-based
EXPERIMENTAL_ENDPOINT: Log IC50

In the examples that follow, each entry is paired with its recorded Log IC50.
Cc1cccc(C)c1CNc1cc(C(=O)N(C)C)nc2c(C)c(C)n(CC(C)O)c12 (centres undefined) ... -4.8
CCc1cccc(C)c1CNc1cc(C(=O)N(C)C)nc2c(CO)c(C)[nH]c12 ... -5.7

A. Cc1cccc(C)c1CNc1cc(C(=O)N(C)C)nc2c(CO)c(C)n(Cc3ccccc3)c12
B. CCc1cccc(C)c1CNc1cc(C(=O)N(C)C)nc2c(C)c(C)[nH]c12
Task item: Select the item whose Log IC50 value is smaller, choosing between A and B . Reply briefly: the label of your chosen item.
Reply: B
(B: -6.6, A: -4.6)
